- assay-remarks: Viability qHTS for spleen associated tyrosine kinase inhibitor (SYKi) drug resistant MV4-11 cells (AID 1963824); also: nearly all actives have a fitted effect of over 35% in size; also: potency is read from the fitted curve at half-maximal effect
- condition-details: SYKi-resistant MV4-11 viability, CellTiter-Glo, 72 h; series mostly up to 45 µM
Inconclusive results are not listed. Calls of active or inactive are those of the source. Calls follow the shape of the dose curve; as a rule, active = well fitted cell-killing curve with a large enough effect; inconclusive = small, poorly fitted or top-dose-only effect, or effect the other way; inactive = no such curve, though single readings can be large or run the other way.
assay-readout: Potency

Solved entries:
INSERT INTO results (compound, result) VALUES
  ('CC(C)(O[C@@H]1O[C@H](CO)[C@@H](O)[C@H](O)[C@H]1O)C(OC(=O)/C=C\c1ccc(O)cc1)C(=O)OCc1ccc(O[C@@H]2O[C@H](CO)[C@@H](O)[C@H](O)[C@H]2O)cc1 (stereo partly drawn)', 'inactive'),
  ('Cc1cc(C)c2nc(-c3ccccn3)cc(C(=O)Nc3ccc(S(=O)(=O)Nc4onc(C)c4C)cc3)c2c1', '25900 nM (active)'),
  ('C/C=C/C(O)C1OC(=O)CC1Nc1ccc(C(=O)O)cc1 (stereo not drawn)', 'inactive'),
  ('COc1cc(C2Oc3c(OC)cc(CCCO)cc3C2CO)ccc1O[C@H]1O[C@H](C)[C@@H](O)[C@H](O)[C@@H]1O (stereo partly drawn)', 'inactive'),
  ('CCC1C(=O)OCC1Cc1cncn1C (stereo not drawn)', 'inactive');

### Prompt # query: Potency of entry `COc1cc(N2CCOCC2)ccc1Nc1ncc(F)c(Nc2ccccc2NS(C)(=O)=O)n1`
### Response 2590 nM (active)

### Prompt # query: Potency of entry `Fc1cccc(-n2cnc3c(NCc4nc5c(F)c(F)ccc5[nH]4)nc(N4CCOCC4)nc32)c1`
### Response 186 nM (active)

### Prompt # query: Potency of entry `C=CC(=O)N1CCC[C@H](n2c(=O)n(-c3ccc(Oc4ccccc4)cc3)c3c(N)ncnc32)C1`
### Response 1660 nM (active)

---

- assay-remarks: Quantitative highthroughput screen to assess conditional lethalithy of P12 Ichikawa cells grown in Human Plasma-Like Medium with dialyzed fetal bovine serum (HPLM+ds) (AID 1963879); also: nearly all actives have a fitted effect of over 35% in size
- condition-details: ATP luminescence, 48 h; viability; series mostly up to 45.8 µM
Results filed as inconclusive are left out. Active and inactive are the calls of the source. The call rests on the fitted dose curve; in most records, active means well fitted cell-killing curve with a large enough effect; inconclusive means small, poorly fitted or top-dose-only effect; inactive means flat fitted curve, though single readings scatter.
Please answer using one outcome listed in class 1 = active, class 0 = inactive

See these solved cases before continuing.
INSERT INTO results (molecule, category_label) VALUES
  ('CCS(=O)(=O)N1CC(CC#N)(n2cc(-c3ncnc4[nH]ccc34)cn2)C1', 'class 0'),
  ('CS(=O)c1ccc(-c2nc(-c3ccc(F)cc3)c(-c3ccncc3)[nH]2)cc1 (stereo not given)', 'class 1'),
  ('NC(=O)c1ccc(I)c([N+](=O)[O-])c1', 'class 0'),
  ('O=C(Nc1cccc(Br)c1)c1cccc(S(=O)(=O)N2CCCCCC2)c1', 'class 0'),
  ('CNC(=O)c1ccc2cc(C3(O)CCn4cncc43)ccc2c1 (stereo not given)', 'class 0');

# evaluate next
### Prompt Test call for this molecule, please: `CN(CC=CC#CC(C)(C)C)Cc1cccc2ccccc12`
### Response class 0

---

- assay-remarks: Cellular viability qHTS for adrenocortical cancer (ACC) cell line SW-13 (AID 1963989);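 also: cells grown in serum-free medium with ITS supplement; % is scaled to controls: 0 for no effect and ±100 for the full control effect; nearly all actives have a fitted effect of over 65% in size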
- condition-details: SW-13 ACC cells viability, CellTiter-Glo, 48 h; active compounds read low
- From the text: PI: Naris Nilubol, MD Surgical Oncology Program, National Cancer Institute (NCI) National Institute of Health (NIH), Bethesda, Maryland Adrenocortical cancer (ACC) is a rare malignancy with poor survival outcomes and few treatment options. Currently, mitotane is the only FDA-approved therapy for ACC. […] Through a quantitative high-throughput drug screen (qHTS), we identified auranofin (AF), a thioredoxin reductase (TXNRD) inhibitor, as a promising candidate drug. […]
Inconclusive results are not listed.
assay-readout: activity (max response) (%)
The response must be a number in % with no trailing unit.

### Prompt # query: activity (max response) of entry `CC(=O)Oc1cccc(C)c1`
### Response 17.7

### Prompt # query: activity (max response) of entry `COc1ccc(C(=O)C2CCN(CC(=O)N(Cc3nc4c(c(=O)[nH]3)COCC4)CC3CC3)CC2)cc1`
### Response 0.295

### Prompt # query: activity (max response) of entry `CN1C(=O)[C@@H](NC(=O)c2n[nH]c(Cc3ccccc3)n2)COc2ccccc21`
### Response 8.85

### Prompt # query: activity (max response) of entry COCCOC(=O)C1=C(C)NC(C)=C(C(=O)OC(C)C)C1c1cccc([N+](=O)[O-])c1 (stereo unspecified)
### Response 7.46

### Prompt # query: activity (max response) of entry `O=C1CN2Cc3c(ccc(Cl)c3Cl)N=C2N1`
### Response 2.15

### Prompt # query: activity (max response) of entry `C=C[C@H]1CN2CC[C@H]1C[C@@H]2[C@@H](O)c1ccnc2ccc(OC)cc12`
### Response 6.85

### Prompt # query: activity (max response) of entry CC(C(=O)O)c1ccc(-c2ccccc2)c(F)c1 (stereo unspecified)
### Response -8.73

### Prompt # query: activity (max response) of entry `CC(=O)CC/C=C(\C)CC/C=C(\C)CC/C=C(\C)CCC=C(C)C`
### Response 9.79

### Prompt # query: activity (max response) of entry `CCN(CC)C(=O)c1ccc(O)c(OC)c1`
### Response 3.37

### Prompt # query: activity (max response) of entry `CC[C@H](C=C[C@@H](C)[C@H]1CC[C@H]2[C@@H]3CC=C4C[C@@H](O)CC[C@]4(C)[C@@H]3CC[C@]12C)C(C)C`
### Response 10.2

### Prompt # query: activity (max response) of entry C=CCc1ccccc1OCC(O)CNC(C)C (stereo unspecified)
### Response 1.07

### Prompt # query: activity (max response) of entry `C[C@@H]1CN(c2c(F)c(F)c3c(=O)c(C(=O)O)cn(C4CC4)c3c2F)C[C@H](C)N1`
### Response 12.9

### Prompt # query: activity (max response) of entry N[C@H]1CN(c2c(F)cc3c(=O)c(C(=O)O)cn(C4C[C@@H]4F)c3c2Cl)CC12CC2 (stereo partly specified)
### Response 4.52

### Prompt # query: activity (max response) of entry `CCC(=O)Nc1cccc(Oc2nc(Nc3ccc(N4CCN(C)CC4)cc3OC)ncc2Cl)c1`
### Response -16.6
